assay: Cytotoxicity against human MRC5 cells assessed as cell growth inhibition by MTT assay; assay type: toxicity, cell-based
VALUE_TYPE: pIC50
# pIC50 is unitless: minus log10 of the molar concentration; print number only

COMPOUND	pIC50
O=c1ccc2ccc(COC(Cn3ccnc3)c3ccc(Cl)cc3Cl)cc2o1 (configuration not stated)	4.61

# input for lookup
Value of pIC50 reported for the compound O=c1ccc2cc(COC(Cn3ccnc3)c3ccc(Cl)cc3Cl)ccc2o1 (configuration not stated) is 4.11

====

tested on: Pichia kudriavzevii; assay: Antifungal activity against Pichia kudriavzevii assessed as fungal growth inhibition by CLSI based microdilution method; assay type: functional
Entries annotated with measured log10(MIC)
Heads up, the numbers here are log10 of MIC in µg/mL units.

Summary line: O=c1oc2ccc(F)cc2cc1COC(Cn1ccnc1)c1ccc(F)cc1F (stereo unspecified) , Pichia kudriavzevii, reported log10(MIC) = 0.60

Summary line: OC(Cn1cncn1)(Cn1cncn1)c1ccc(F)cc1F [FLUCONAZOLE] , Pichia kudriavzevii, reported log10(MIC) = 1.51

Summary line: Clc1ccc(COC(Cn2ccnc2)c2ccc(Cl)cc2Cl)c(Cl)c1 (stereo unspecified) [MICONAZOLE] , Pichia kudriavzevii, reported log10(MIC) = -0.30

Summary line: O=c1oc2ccc(Cl)cc2cc1COC(Cn1ccnc1)c1ccc(Cl)cc1Cl (stereo unspecified) , Pichia kudriavzevii, reported log10(MIC) = 2.11

Summary line: O=c1ccc2cc(COC(Cn3ccnc3)c3ccc(F)cc3F)ccc2o1 (stereo unspecified) , Pichia kudriavzevii, reported log10(MIC) = 0.90

Summary line: O=c1ccc2ccc(COC(Cn3cnnn3)c3ccc(F)cc3F)cc2o1 (stereo unspecified) , Pichia kudriavzevii, reported log10(MIC) = 1.51

Summary line: O=c1oc2ccccc2cc1COC(Cn1ccnc1)c1ccc(F)cc1 (stereo unspecified) , Pichia kudriavzevii, reported log10(MIC) = 0.00

Summary line: O=c1ccc2cc(COC(Cn3cncn3)c3ccc(F)cc3F)ccc2o1 (stereo unspecified) , Pichia kudriavzevii, reported log10(MIC) = 1.51

Summary line: O=c1ccc2cc(COC(Cn3cnnn3)c3ccc(Cl)cc3Cl)ccc2o1 (stereo unspecified) , Pichia kudriavzevii, reported log10(MIC) = 1.81

Summary line: O=c1ccc2ccc(COC(Cn3ccnc3)c3ccc(Cl)cc3Cl)cc2o1 (stereo unspecified) , Pichia kudriavzevii, reported log10(MIC) = 0.30

Summary line: O=c1oc2ccccc2cc1COC(Cn1ccnn1)c1ccc(F)cc1F (stereo unspecified) , Pichia kudriavzevii, reported log10(MIC) = 1.81

Summary line: O=c1oc2ccc(Cl)cc2cc1COC(Cn1ccnc1)c1ccc(F)cc1F (stereo unspecified) , Pichia kudriavzevii, reported log10(MIC) = 2.11

Summary line: O=c1oc2ccccc2cc1COC(Cn1ccnc1)c1ccc(F)cc1F (stereo unspecified) , Pichia kudriavzevii, reported log10(MIC) = -0.30

Summary line: O=c1oc2ccc([N+](=O)[O-])cc2cc1COC(Cn1ccnc1)c1ccc(F)cc1F (stereo unspecified) , Pichia kudriavzevii, reported log10(MIC) = 2.11

Summary line: O=c1ccc2cc(COC(Cn3ccnn3)c3ccc(Cl)cc3Cl)ccc2o1 (stereo unspecified) , Pichia kudriavzevii, reported log10(MIC) = 2.11

Summary line: O=c1oc2ccccc2cc1COC(Cn1ccnn1)c1ccc(Cl)cc1Cl (stereo unspecified) , Pichia kudriavzevii, reported log10(MIC) = 2.11

Summary line: O=c1oc2ccccc2cc1COC(Cn1cncn1)c1ccc(F)cc1F (stereo unspecified) , Pichia kudriavzevii, reported log10(MIC) = 1.20

Summary line: O=c1ccc2cc(COC(Cn3ccnc3)c3ccc(F)cc3)ccc2o1 (stereo unspecified) , Pichia kudriavzevii, reported log10(MIC) = 1.81

Summary line: COc1cccc2cc(COC(Cn3ccnc3)c3ccc(F)cc3F)c(=O)oc12 (stereo unspecified) , Pichia kudriavzevii, reported log10(MIC) = 0.30

Summary line: O=c1ccc2ccc(COC(Cn3ccnc3)c3ccc(F)cc3)cc2o1 (stereo unspecified) , Pichia kudriavzevii, reported log10(MIC) = 1.51

Summary line: O=c1oc2ccccc2cc1COC(Cn1ccnc1)c1ccc(Cl)cc1Cl (stereo unspecified) , Pichia kudriavzevii, reported log10(MIC) = -0.60

Summary line: O=c1ccc2cc(COC(Cn3cnnn3)c3ccc(F)cc3F)ccc2o1 (stereo unspecified) , Pichia kudriavzevii, reported log10(MIC) = 2.11

Summary line: O=c1ccc2ccc(COC(Cn3ccnc3)c3ccc(F)cc3F)cc2o1 (stereo unspecified) , Pichia kudriavzevii, reported log10(MIC) = 1.81
